The measurements presented in this section are drawn from PubChem BioAssay AID2060904.

Test system: 349418-098-R-PDC complex spheroid viability;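 further: spheroids exposed to compound for seven days before viability readout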
Assay: Anticancer human tumor 349418-098-R-PDC patient-derived lung adenocarcinoma cell line growth inhibition [RAS]
Conditions: second compound 0.1 µM; first compound 3.16 µM; stronger effect = lower value
MEASURED_QUANTITY: viability, T/C (%)
Output spec: scalar in %, unitless text.

Item CC1(O)CCCC1n1c(=O)c(C(F)F)cc2cnc(NC3CCN(S(C)(=O)=O)CC3)nc21 (stereo not given) + C#Cc1c(F)ccc2cc(O)cc(-c3ncc4c(N5CC6CCC(C5)N6)nc(OCC56CCCN5CC(F)C6)nc4c3F)c12 ; assay system 349418-098-R-PDC complex spheroid viability; viability, T/C reported as 18.7

Log: 349418-098-R-PDC complex spheroid viability, compound CC(C)NCC(C(=O)N1CCN(c2ncnc3c2C(C)CC3O)CC1)c1ccc(Cl)cc1 (stereo not given) + C=CC(=O)N1CCN(c2nc(OCC3CCCN3C)nc3c(F)c(-c4nc(N)cc(C)c4C(F)(F)F)c(Cl)cc23)C(C)C1 , viability, T/C = 16.1

The compound Cc1nc(N2CCC3(CC2)COC(C)C3N)c(CO)nc1Sc1ccnc(N)c1Cl (stereo not given) + C#Cc1c(F)ccc2cc(O)cc(-c3ncc4c(N5CC6CCC(C5)N6)nc(OCC56CCCN5CC(F)C6)nc4c3F)c12 , when measured on 349418-098-R-PDC complex spheroid viability, yielded viability, T/C of 108

// assay 349418-098-R-PDC complex spheroid viability, entry C[C@@H](NC(=O)c1ncnc(N)c1Cl)c1ncc(C(=O)Nc2cc(C(F)(F)F)c(Cl)cn2)s1 + C#Cc1c(F)ccc2cc(O)cc(-c3ncc4c(N5CC6CCC(C5)N6)nc(OCC56CCCN5CC(F)C6)nc4c3F)c12 , viability, T/C value = 47.4

Form field, viability, T/C with 349418-098-R-PDC complex spheroid viability, item C[C@@H](NC(=O)c1ncnc(N)c1Cl)c1ncc(C(=O)Nc2cc(C(F)(F)F)c(Cl)cn2)s1 + C=CC(=O)N1CCN(c2nc(OCC3CCCN3C)nc3c(F)c(-c4nc(N)cc(C)c4C(F)(F)F)c(Cl)cc23)C(C)C1 : 46.8
